Answer each item with its documented maximal estimated liver concentrations.
assay type: in vivo, human; settings: after a single 25-mg dose; approximately 3 times less than 75 mg
One number for each entry, in µmol/L.

Use these answered entries as a reference point.
- CC(NC(C)(C)CO)C(=O)c1cccc(Cl)c1 (stereo not shown) [OH-bup, 4′-hydroxybupropion]: 0.38
- CC(NC(C)(C)C)C(=O)c1cccc(Cl)c1 (stereo not shown): 0.24
- C[C@H](NC(C)(C)C)[C@@H](O)c1cccc(Cl)c1 [threohydrobupropion]: 0.44

Turning to the following compound.
Which value of maximal estimated liver concentrations has been reported for CC(NC(C)(C)C)C(O)c1cccc(Cl)c1 (stereo not shown) [erythrohydrobupropion] in the records?
0.05

Sourced from paper PMC4151019
